- Test system: Arabidopsis
- protocolText: Ribo-seq and RNA-seq global translatome profiling (translational efficiency TE, mORF/uORF ribo-shift) upon elf18 treatment
- Type: in vivo
- Parameters: key: Up: ribo-shift up (i.e., increased mORF/uORF ratio); Down: ribo-shift down (i.e., decreased mORF/uORF ratio)
- conditionInfo: shift of mORF/uORF ratio, elf18 vs Mock; per uORF
measurementType: score (Ribo-shift)

Example substances with recorded score (Ribo-shift):
Data request: Looking for the measured score (Ribo-shift) of AT3G18140.1_2: uORF of AT3G18140.1; peptide SEQ ID NO: 17 (DNA ATGGTTGGTTTAATATTTCAATCGGGATAA; listed as DNA, chemistry not fully specified) , can you help?
Data returned: Down

Data request: I would be grateful if you could share the reported score (Ribo-shift) for AT3G03070.1_1: uORF of AT3G03070.1; peptide SEQ ID NO: 15 (DNA ATGCGTTGTTTGGTACAGCTTCACGAACAATCTCTCTCTCGATAG; listed as DNA, chemistry not fully specified) .
Data returned: Down

Data request: So what does the record say about score (Ribo-shift) for AT2G42950.1_1: uORF of AT2G42950.1; peptide SEQ ID NO: 12 (DNA ATGATCTTACGTGAAATTGCAGCCTAA; listed as DNA, chemistry not fully specified) ?
Data returned: Down

Data request: // lookup score (Ribo-shift) for AT3G56010.1_1: uORF of AT3G56010.1; peptide SEQ ID NO: 19 (DNA ATGCGTCGCTCTTAA; listed as DNA, chemistry not fully specified)
Data returned: Up

Data request: Sample AT1G30330.13: uORF of AT1G30330.1; peptide SEQ ID NO: 5 (DNA ATGAGTGGGGTGGATTAA; listed as DNA, chemistry not fully specified) — what was its score (Ribo-shift)?
Data returned: Down

Working through the 3 substances below one at a time, give score (Ribo-shift) for each.
1. AT4G32660.1_1: uORF of AT4G32660.1; peptide SEQ ID NO: 28 (DNA ATGTCGTCGCGGTTCGACCCCAAGGGATTTGGCCGGTAA; listed as DNA, chemistry not fully specified)
2. AT4G17840.1_4: uORF of AT4G17840.1; peptide SEQ ID NO: 22 (DNA ATGTTATAA; listed as DNA, chemistry not fully specified)
3. AT4G32800.1_1: uORF of AT4G32800.1; peptide SEQ ID NO: 29 (DNA ATGATAGAAACAAGAACTATCTTTTTATAA; listed as DNA, chemistry not fully specified)

Data returned:
["Down", "Up", "Down"]

List the reported score (Ribo-shift) of each substance below.
1. AT5G14930.1_1: uORF of AT5G14930.1; peptide SEQ ID NO: 34 (DNA ATGGACTCTCGTTCTCAGACATTTATTTCTCTCAGTCTTACAATATAA; listed as DNA, chemistry not fully specified)
2. AT5G11790.1_1: uORF of AT5G11790.1; peptide SEQ ID NO: 33 (DNA ATGGAAAGATAA; listed as DNA, chemistry not fully specified)

Data returned:
["Down", "Down"]

Data request: Fill in: score (Ribo-shift) of AT3G02570.1_2: uORF of AT3G02570.1; peptide SEQ ID NO: 14 (DNA ATGCTTGAGATATTTTGTTTTTACCTCCGAGAAACGGATTTAGATTCGTAA; listed as DNA, chemistry not fully specified) is ___
Data returned: Down
